Origin of the recorded values: patent US9346809B2

# assayTarget: TYK2 (aa 871-1187, catalytic domain, GST-tag) (Homo sapiens, UniProt P29597)
# Construct: JAK1 (aa 850-1154) and TYK2 (aa 871-1187) are expressed with an N-terminally fused GST-tag; GST (N); purchased Carna Biosciences, Inc; host or cells: baculovirus expression system
# Sequence (P29597 871-1187): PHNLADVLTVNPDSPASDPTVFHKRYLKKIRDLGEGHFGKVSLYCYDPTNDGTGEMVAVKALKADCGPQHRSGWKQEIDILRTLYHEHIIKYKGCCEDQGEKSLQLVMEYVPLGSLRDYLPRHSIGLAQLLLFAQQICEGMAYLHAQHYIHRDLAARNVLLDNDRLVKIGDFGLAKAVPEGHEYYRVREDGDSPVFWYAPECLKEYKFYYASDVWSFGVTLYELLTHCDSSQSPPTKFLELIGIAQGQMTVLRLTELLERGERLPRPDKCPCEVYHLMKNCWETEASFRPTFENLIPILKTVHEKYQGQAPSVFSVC
# procedureDetails: JAK kinase assay (HTRF, phosphorylation of TK substrate-biotin), TYK2
# Assay type: biochemical
# cond: HTRF assay, ATP at Km (13 μM); read-out: TYK2 kinase inhibitory activity (EC50 indicator)
Listed here: items and their measured EC50.

Please review the following examples before continuing.
[[record]]
entrysmiles = "Cc1c[nH]c2ncnc(N3CCN(C(=O)CCC#N)C4(CC4)C3)c12"
result = "> 0.5 µM"

[[record]]
entrysmiles = "NS(=O)(=O)c1cccc(C(=O)N2CCN(c3ncnc4[nH]ccc34)CC23CC3)c1"
result = "< 0.1 µM"

[[record]]
entrysmiles = "O=C(c1cc2cc(F)ccc2[nH]1)N1CCN(c2ncnc3[nH]ccc23)CC12CC2"
result = "< 0.1 µM"


Let us move to another entry and its EC50.
Entry under test: Cc1c(C(=O)N2CCN(c3ccnc4[nH]ccc34)CC23CC3)sc2ccccc12 . Its EC50 was 0.1 to 0.5 µM

###

# assayTarget: JAK2 (catalytic domain, His-tag) (Homo sapiens, UniProt O60674)
# Construct: All four purified enzymes contain only the catalytic domain; His (N); purchased Carna Biosciences, Inc; host or cells: baculovirus expression system
# Sequence (O60674 849-1124 limits assumed): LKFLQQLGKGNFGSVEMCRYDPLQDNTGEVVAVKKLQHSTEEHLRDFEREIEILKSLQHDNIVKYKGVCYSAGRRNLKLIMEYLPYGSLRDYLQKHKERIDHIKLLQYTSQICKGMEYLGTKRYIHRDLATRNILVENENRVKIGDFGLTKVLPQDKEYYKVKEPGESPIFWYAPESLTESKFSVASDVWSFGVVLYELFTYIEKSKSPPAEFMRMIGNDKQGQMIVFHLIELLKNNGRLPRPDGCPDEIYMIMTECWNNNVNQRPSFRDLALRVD
# procedureDetails: JAK kinase assay (HTRF, phosphorylation of TK substrate-biotin), JAK2
# Format: biochemical
# cond: ATP at Km (4 μM); read-out: JAK2 kinase inhibitory activity (EC50 indicator)
metric: EC50

Please review the following examples before continuing.
[[record]]
molecule = "CS(=O)(=O)c1ccc(CC(=O)N2CCN(c3ncnc4[nH]ccc34)CC23CC3)cc1 [Example 107]"
metric = "EC50"
result = "< 100 nM"

[[record]]
molecule = "O=C(Cc1ccccc1)N1CCN(c2ncnc3[nH]ccc23)CC12CC2 [Example 152]"
metric = "EC50"
result = "< 100 nM"


Entry under test: O=C(NC1CCCCC1)N1[C@@H]2CC[C@H]1CN(c1ncnc3[nH]ccc13)C2 [Example 46] . Its EC50 was 100 to 500 nM

Entry under test: CC(=O)Nc1nc(N2CCN(C(=O)Cc3ccc(C#N)cc3)C3(CC3)C2)c2cc[nH]c2n1 [Example 93] . Its EC50 was < 100 nM

Entry under test: N#Cc1ccc(CC(=O)N2CCN(c3nc(NC(=O)c4ccno4)nc4[nH]ccc34)CC23CC3)cc1 [Example 99] . Its EC50 was < 100 nM
